- testedTarget: furin, P09958;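 also: purified furin at 1:10 enzyme:substrate in 50 mM HEPES pH 7.5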
- Sequence (P09958 whole entry): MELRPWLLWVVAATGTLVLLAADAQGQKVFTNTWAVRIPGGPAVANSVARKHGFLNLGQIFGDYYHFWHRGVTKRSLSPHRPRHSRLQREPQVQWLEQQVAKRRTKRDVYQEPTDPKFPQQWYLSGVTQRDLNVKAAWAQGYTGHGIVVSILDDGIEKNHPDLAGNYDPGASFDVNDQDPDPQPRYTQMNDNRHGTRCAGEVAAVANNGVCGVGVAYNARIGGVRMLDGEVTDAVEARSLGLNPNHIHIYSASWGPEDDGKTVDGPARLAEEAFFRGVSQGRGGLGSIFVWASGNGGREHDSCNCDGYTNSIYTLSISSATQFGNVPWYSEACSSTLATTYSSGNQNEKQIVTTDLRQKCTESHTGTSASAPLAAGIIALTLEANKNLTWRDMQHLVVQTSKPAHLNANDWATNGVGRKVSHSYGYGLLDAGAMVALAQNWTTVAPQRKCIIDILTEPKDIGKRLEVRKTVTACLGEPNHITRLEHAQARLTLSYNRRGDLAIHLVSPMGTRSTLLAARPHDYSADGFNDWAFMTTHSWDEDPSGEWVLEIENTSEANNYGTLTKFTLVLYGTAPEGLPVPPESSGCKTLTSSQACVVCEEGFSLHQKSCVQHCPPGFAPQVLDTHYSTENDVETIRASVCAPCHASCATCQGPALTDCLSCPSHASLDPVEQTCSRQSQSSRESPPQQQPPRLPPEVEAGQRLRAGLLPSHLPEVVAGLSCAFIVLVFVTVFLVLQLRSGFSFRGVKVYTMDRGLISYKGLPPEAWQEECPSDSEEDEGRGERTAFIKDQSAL
- protocolDetails: furin cleavage Z-score vs untreated control; higher = more cleavage, active = 3.5 or more, inactive = 1 or less, 8 variable residues between constant flanks
- particulars: 30 min
This is one part of the list. The hit rate among all sequences tested is not known here.
# label = YES if furin cleavage Z-score >= 0.7 else NO

Please review the entries below; each comes with its answer.
CAVCPRMKRKAGNASASA [FS-385]; YES
CAKRWRRRRYAGNASASA [FS-1350]; YES

query: Hi, just wondering whether CAHRSRDGRYAGNASASA [FS-797] shows furin cleavage Z-score of 0.7 or higher.
result: YES

query: Determine whether measured furin cleavage Z-score meets or exceeds 0.7 for CAVKKRTKRDAGNASASA [FS-1579]
result: YES

query: Tell me whether furin cleavage Z-score is at least 0.7 here: CARMIRTNEAAGNASASA [FS-3000]
result: YES

query: Please indicate if the recorded furin cleavage Z-score for CAPGSRKRRTAGNASASA [FS-1147] meets or exceeds 0.7.
result: YES

query: Test whether the sequence CARHSRKKRLAGNASASA [FS-1259] records furin cleavage Z-score of 0.7 or higher.
result: YES

Measured values drawn from the supplement of paper PMC3545927 for this set.
